- Assayed target: T1, rat APJ receptor (rat, UniProt Q9JHG3 1-377)
- T1 sequence (looked up): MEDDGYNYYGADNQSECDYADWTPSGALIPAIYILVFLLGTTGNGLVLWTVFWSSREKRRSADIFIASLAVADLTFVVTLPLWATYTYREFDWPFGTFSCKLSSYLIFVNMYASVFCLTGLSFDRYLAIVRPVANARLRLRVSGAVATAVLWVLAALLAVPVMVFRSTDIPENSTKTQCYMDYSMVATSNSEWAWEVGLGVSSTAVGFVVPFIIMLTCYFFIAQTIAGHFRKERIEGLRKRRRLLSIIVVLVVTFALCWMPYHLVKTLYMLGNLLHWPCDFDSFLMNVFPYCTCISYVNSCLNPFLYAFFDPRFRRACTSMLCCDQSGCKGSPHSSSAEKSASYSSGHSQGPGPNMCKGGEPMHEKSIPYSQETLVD
- Experimental details: cell-based or functional assay
Starred links: 1 amine or outer side, 2 acyl side, 3 side chain; linkers in the order of their positions; H or OH if unused. Non-standard residues stand in square brackets, D forms with d. Primed or numbered codes have the meaning given here. No end group written: not given here. *: point of attachment. rLys = lysine with ψ(CH2NH) reduced amide bond, C(CC[C@@H](C[*:2])N[*:1])CN[*:3]; Oic = O=C(O)[C@@H]1C[C@@H]2CCCC[C@@H]2N1; Phe(4-Cl) = N[C@@H](Cc1ccc(Cl)cc1)C(=O)O; Heptadecanoyl = CCCCCCCCCCCCCCCCC(=O)*; γGlu = O=C(O)[C@H](CCC(=O)[*:2])N[*:1]; NMeR = CN[C@@H](CCCNC(=N)N)C(=O)O; hArg = N=C(N)NCCCC[C@H](N)C(=O)O; β3hR = N=C(N)NCCC[C@H](N)CC(=O)O; Cha = N[C@@H](CC1CCCCC1)C(=O)O; β3hL = CC(C)C[C@H](N)CC(=O)O; code O = not defined here; Nle = CCCC[C@H](N)C(=O)O; Orn = NCCC[C@H](N)C(=O)O; Pip′ = not defined here; AEEA = NCCOCCOCC(=O)O; BLeu = β-leucine; Mpa = O=C(O)CCS
Entries whose EC50 Rat APJ Receptor is below 1 nM take true; entries at or above 1 nM take false.

{20K mPEGacetamide}-[Mpa]QRP[hArg][Cha]SHKG[Oic][Nle]P[Phe(4-Cl)]-OH (numbers in words are those of the source; also: 20 kDa PEG conjugate) [apelin polypeptide SEQ ID NO: 101] ... false
[Orn]F[hArg][β3hR]Q[hArg]P[hArg][Cha]SHKG[Oic][Nle]P[Phe(4-Cl)] [apelin polypeptide SEQ ID NO: 689] ... true
[code O]F[hArg][NMeR]Q[NMeR]P[NMeR][Cha]SHKG[Oic][Nle]P[Phe(4-Cl)] (reading uncertain) [apelin polypeptide SEQ ID NO: 673] ... false
Heptadecanoyl-[γGlu][AEEA][AEEA]Q[dR]P[NMeR][Cha]SHKG[Oic][Nle][Pip′][Phe(4-Cl)]-OH [apelin polypeptide SEQ ID NO: 234] ... false
Ac-[Orn]F[hArg][hArg][BLeu][hArg]P[hArg][Cha]SHKG[Oic][Nle]P[Phe(4-Cl)]-OH [apelin polypeptide SEQ ID NO: 29] ... true

Lookup: Determine whether this binder shows EC50 Rat APJ Receptor lower than 1 nM (ties excluded): Ac-[Orn]F[hArg][hArg]Q[hArg]P[hArg][Cha]SH[rLys]G[Oic][Nle]P[Phe(4-Cl)]-OH (also: reduced amide bond (CH2NH) at residue 12) [apelin polypeptide SEQ ID NO: 41]
Found: true

Lookup: For [Orn]F[hArg][hArg]Q[hArg]P[hArg][β3hL]SHKG[Oic][Nle]P[Phe(4-Cl)] [apelin polypeptide SEQ ID NO: 697] , is the recorded EC50 Rat APJ Receptor below the cut-off of 1 nM?
Found: true
